pIC50 values by entry
Molecular target: HLA-A*02:01
Experiment: IEDB peptide-MHC binding, purified MHC/competitive/radioactivity; bounds were set here for any values at or beyond the usual limits of such assays
Settings: source organism: Trypanosoma cruzi
// field semantics: pIC50 = negative decimal log of concentration (mol/L)

Use the examples below as a reference point.
monomer.sequence	target.or.system	pIC50
IANYNFTLV	HLA-A*02:01	4.53
FANYNFTLL	HLA-A*02:01	5.82
SLSHYFTLVF	HLA-A*02:01	8.80
FANYKFTLV	HLA-A*02:01	7.31
LLGLWGLATA	HLA-A*02:01	7.62
FANYNFTLV	HLA-A*02:01	9.33
FLSHDFTLV	HLA-A*02:01	9.34
FVSCDFTIV	HLA-A*02:01	7.52
FVNHRFTLV	HLA-A*02:01	6.52
FLSHNFTLVF	HLA-A*02:01	9.21

Field: next sequence
Data request, read-out pIC50, for FANHDFTLV 7.00
